Entry source: patent US9452980B2

Molecular target: mouse TAAR1 (Mus musculus (Mouse))
Test: Radioligand binding assay on mouse TAAR1
Settings: mouse TAAR1, HEK-293 membranes, first value of cell mouse/rat; read-out: Ki (μM) mouse
Counter-ions that a name gives are not always drawn.
test.readout: Ki (µM)

{"compound": "O=C(Nc1ccc(C2CCNC2)cn1)c1ccc(Cl)cc1 (racemic) [Example 181, hydrochloride]", "Ki / µM": 0.0663}

1. Cc1cccc(NC(=O)Nc2ccc(C3CNCCO3)cc2)c1 (racemic) [Example 304, hydrochloride]
2. O=C(Nc1ccc(C2CNCCO2)cc1)c1ccc(OC2CCOCC2)nc1 (racemic) [Example 232, hydrochloride]
[in] // compare measured Ki between 1 and 2 ; output the lower one Identify your selection by its label.
[out] 1
(1: 0.0071 µM, 2: 0.15 µM)

###

Biological target: rat TAAR1 (Rattus norvegicus (Rat))
Experiment: Radioligand binding assay on rat TAAR1
Conditions: hydrochloride; read-out: Ki (μM) rat
Structures can show the parent of a compound that is named as a salt.
test.readout: Ki (µM)
Provide only the numeric value, understood in µM.

[in] Item under review: CSc1ccc(C(=O)Nc2ccc([C@@H]3CNCCO3)cc2)cc1 [Example 266, hydrochloride] . Reported Ki?
[out] 0.0012

###

Target: mouse TAAR1 (Mus musculus (Mouse), UniProt Q923Y8)
Sequence (Q923Y8 whole entry): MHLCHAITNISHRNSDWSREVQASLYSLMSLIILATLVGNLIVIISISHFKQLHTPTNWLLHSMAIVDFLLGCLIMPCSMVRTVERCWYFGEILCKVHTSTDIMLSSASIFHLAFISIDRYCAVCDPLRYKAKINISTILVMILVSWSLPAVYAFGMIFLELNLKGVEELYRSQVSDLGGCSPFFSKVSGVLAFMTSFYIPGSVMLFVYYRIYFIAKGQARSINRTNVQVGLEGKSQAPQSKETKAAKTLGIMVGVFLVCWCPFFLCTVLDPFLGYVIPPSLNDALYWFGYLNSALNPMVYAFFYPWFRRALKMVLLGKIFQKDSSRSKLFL
Experiment: Radioligand binding assay on mouse TAAR1
Conditions: mouse TAAR1, HEK-293 membranes, first value of cell mouse/rat; read-out: Ki (μM) mouse
Structures can show the parent of a compound that is named as a salt.
test.readout: Ki (µM)

Below, each entry is followed by its recorded Ki result.
{"molecule": "CN1CCC(c2ccc(NC(=O)c3ccc(Cl)cc3)cc2)C1 (racemic)", "test.readout": "Ki", "obs.value": 0.0005}
{"molecule": "CCC(C(=O)Nc1ccc(C2CCNC2)cc1)c1ccccc1 (racemic)", "test.readout": "Ki", "obs.value": 0.0407}
{"molecule": "CN1CCOC(c2ccc(NC(=O)c3ccc(Cl)cc3)cc2)C1 (racemic)", "test.readout": "Ki", "obs.value": 0.0035}

A. O=C(Nc1ccc(C2CCNC2)cc1)OCCc1ccc(Cl)cc1 (racemic)
B. CCOc1ccc(C(=O)Nc2ccc(C3CNCCO3)cc2)cn1 (racemic) [Example 245, hydrochloride]
C. O=C(Cc1ccc(Cl)cc1)Nc1ccc(C2CCNC2)cc1 (racemic) [Example 17, hydrochloride]
[in] Rank by Ki (largest to smallest). Please respond by ranking the labels in the order requested.
[out] B, C, A
(B: 0.0649 µM, C: 0.0083 µM, A: 0.0004 µM)

A. CCSc1cccc(C(=O)Nc2ccc([C@@H]3CCCNC3)cc2)c1
B. O=C(Nc1ccc(C2CCNC2)cc1)c1nc2ccccc2[nH]1 (racemic) [Example 76, hydrochloride]
[in] Which value of Ki is numerically greater: that of A or that of B ? Identify your selection by its label.
[out] B

A. O=C(Nc1ccc(C2CCNC2)cc1)OC1CCC(F)(F)CC1 (racemic)
B. O=C(Nc1ccc(CCC2CCCNC2)cc1)c1ncc(F)cc1F (racemic) [Example 135, hydrochloride]
C. O=C(Nc1ccc(CCC2CCCN2)cc1)c1cnc(Cl)cn1 (racemic) [Example 164, hydrochloride]
D. O=C(Nc1ccc(C2CCCNC2)cc1)c1ccc(C(F)(F)F)cn1 (racemic) [Example 138, hydrochloride]
[in] Rank by Ki (largest to smallest). Please respond by ranking the labels in the order requested.
[out] B, C, D, A

a. COC(C(=O)Nc1ccc(C2CCNC2)cc1)c1ccc(Cl)cc1 (racemic)
b. O=C(Nc1ccc(C2CCNC2)cc1)OCCc1cccc(Cl)c1 (racemic)
[in] Which value of Ki is numerically greater: that of a or that of b ? Identify your selection by its label.
[out] a

###

Molecular target: rat TAAR1 (Rattus norvegicus (Rat), UniProt Q923Y9)
Sequence (Q923Y9 whole entry): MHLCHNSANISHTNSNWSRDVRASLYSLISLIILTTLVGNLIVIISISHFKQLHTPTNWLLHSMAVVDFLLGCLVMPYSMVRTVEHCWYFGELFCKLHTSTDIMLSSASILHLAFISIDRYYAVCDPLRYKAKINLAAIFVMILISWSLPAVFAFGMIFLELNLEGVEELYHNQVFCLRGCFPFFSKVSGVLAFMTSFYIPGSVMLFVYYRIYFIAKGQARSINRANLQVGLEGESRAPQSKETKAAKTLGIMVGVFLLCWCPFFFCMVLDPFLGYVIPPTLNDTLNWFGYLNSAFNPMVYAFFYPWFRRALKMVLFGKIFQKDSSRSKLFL
Assay: Radioligand binding assay on rat TAAR1
Settings: rat TAAR1, HEK-293 membranes, second value of cell mouse/rat; read-out: Ki (μM) rat
Where a name gives a salt, the structure may show the parent alone.
test.readout: Ki (µM)

Below, each entry is followed by its recorded Ki result.
{"compound": "O=C(Nc1ccc(CCC2CCCN2)cc1)c1cccc(Cl)c1 (racemic)", "target.or.system": "rat TAAR1 (Rattus norvegicus (Rat), UniProt Q923Y9)", "Ki [µM]": 0.0007}
{"compound": "O=C(Nc1ccc(C2CCNC2)cc1)OCCc1ccc(Cl)cc1 (racemic)", "target.or.system": "rat TAAR1 (Rattus norvegicus (Rat), UniProt Q923Y9)", "Ki [µM]": 0.0013}
{"compound": "O=C(Nc1ccc(C2CNCCO2)cc1)Nc1ccc(Cl)nc1 (racemic) [Example 302, hydrochloride]", "target.or.system": "rat TAAR1 (Rattus norvegicus (Rat), UniProt Q923Y9)", "Ki [µM]": 0.0056}
{"compound": "CCOc1cc(C(=O)Nc2ccc(C3CNCCO3)cc2)ccn1 (racemic) [Example 300, hydrochloride]", "target.or.system": "rat TAAR1 (Rattus norvegicus (Rat), UniProt Q923Y9)", "Ki [µM]": 0.002}
{"compound": "O=C(Nc1ccc(C2CNCCO2)cc1)c1ccc(N2CCCC2)nc1 (racemic) [Example 279, hydrochloride]", "target.or.system": "rat TAAR1 (Rattus norvegicus (Rat), UniProt Q923Y9)", "Ki [µM]": 0.0044}
{"compound": "O=C(Nc1ccc([C@@H]2CNC[C@H]2O)cc1)c1ccc(Cl)cc1 (racemic) [Example 63, hydrochloride]", "target.or.system": "rat TAAR1 (Rattus norvegicus (Rat), UniProt Q923Y9)", "Ki [µM]": 0.174}

1. O=C(Nc1ccc(C2CCNC2)cc1)OCCc1ccc(OC(F)(F)F)cc1 (racemic)
2. O=C(Nc1ccc(C2CCNC2)cc1)N1CCOCC1 (racemic) [Example 21, hydrochloride]
[in] // compare measured Ki between 1 and 2 ; output the lower one Identify your selection by its label.
[out] 1
(1: 0.0007 µM, 2: 0.359 µM)

###

Target: mouse TAAR1 (Mus musculus (Mouse))
Experiment: Radioligand binding assay on mouse TAAR1
Conditions: mouse TAAR1, HEK-293 membranes, first value of cell mouse/rat; read-out: Ki (μM) mouse
Structures can show the parent of a compound that is named as a salt.
test.readout: Ki (µM)

Below, each entry is followed by its recorded Ki result.
{"compound": "C[C@H](C(=O)Nc1ccc(C2CCNC2)cc1)c1ccccc1 (mixture of isomers)", "target.or.system": "mouse TAAR1 (Mus musculus (Mouse))", "obs.value": 0.053}
{"compound": "O=C(Nc1ccc([C@@H]2CCNC2)cc1)c1ccc(OCC(F)(F)F)nc1 [Example 205, hydrochloride]", "target.or.system": "mouse TAAR1 (Mus musculus (Mouse))", "obs.value": 0.0034}

I. O=C(Nc1ccc(C2CCCNC2)cc1)Nc1ccc(Cl)cn1 (racemic) [Example 83, hydrochloride]
II. O=C(Nc1ccc(CCC2CCCNC2)cc1)c1ncccc1F (racemic) [Example 134, hydrochloride]
[in] // compare measured Ki between I and II ; output the lower one Identify your selection by its label.
[out] I

###

Target: mouse TAAR1 (Mus musculus (Mouse))
Test: Radioligand binding assay on mouse TAAR1
Details: mouse TAAR1, HEK-293 membranes, first value of cell mouse/rat; read-out: Ki (μM) mouse
Method: For the construction of expression plasmids the coding sequences of human, rat and mouse TAAR1 were amplified from genomic DNA essentially as described by Lindemann et al.. The Expand High Fidelity PCR System (Roche Diagnostics) was used with 1.5 mM Mg^2+ and purified PCR products were cloned into pCR2.1-TOPO cloning vector (Invitrogen) following the instructions of the manufacturer. […]
Structures can show the parent of a compound that is named as a salt.
test.readout: Ki (µM)

I. O=C(Nc1ccc([C@@H]2CCCNC2)cc1)c1ccc(Br)nc1 [Example 252, 2,2,2-trifluoroacetate]
II. C#Cc1ccc(C(=O)Nc2ccc(CCC3CCCCN3)cc2)cc1 (racemic) [Example 177, hydrochloride]
III. COc1cccc(C(C)C(=O)Nc2ccc(C3CCNC3)cc2)c1 (racemic)
IV. O=C(Nc1ccc([C@H]2CCCNC2)cc1)c1ccc(Cl)cc1
[in] Sort the list above on Ki in ascending fashion. Please respond by ranking the labels in the order requested.
[out] IV, I, II, III
(IV: 0.0095 µM, I: 0.0783 µM, II: 0.114 µM, III: 0.499 µM)

###

Biological target: rat TAAR1 (Rattus norvegicus (Rat), UniProt Q923Y9)
Assay: Radioligand binding assay on rat TAAR1
Settings: rat TAAR1, HEK-293 membranes, second value of cell mouse/rat; read-out: Ki (μM) rat
Where a name gives a salt, the structure may show the parent alone.
test.readout: Ki (µM)

Below, each entry is followed by its recorded Ki result.
{"molecule": "CC1(COc2ccc(C(=O)Nc3ccc(C4CNCCO4)cc3)cc2)COC1 (racemic)", "unit.text": "µM", "Ki": 0.0608}
{"molecule": "CN(C(=O)Nc1ccc(C2CCNC2)cc1)c1ccccc1 (racemic)", "unit.text": "µM", "Ki": 0.645}

I. O=C(Nc1ccc(C2CNCCO2)cc1)c1ccc(Oc2ccc(Cl)cc2)cc1 (racemic) [Example 206, hydrochloride]
II. O=C(Nc1ccc(C2CCNC2)nc1)c1ccc(Cl)cc1 (racemic)
[in] Which value of Ki is numerically greater: that of I or that of II ? Identify your selection by its label.
[out] II
(II: 0.0358 µM, I: 0.0011 µM)

1. O=C(Nc1ccc(Cl)cc1)Nc1ccc(CCC2CCCNC2)cc1 (racemic) [Example 119, hydrochloride]
2. O=C(Nc1ccc(C2CCNC2)cc1)Nc1cccc2cccnc12 (racemic)
3. O=C(NCc1ccccc1)Nc1ccc(C2CCNC2)cc1 (racemic) [Example 9, hydrochloride]
[in] Rank by Ki (largest to smallest). Please respond by ranking the labels in the order requested.
[out] 3, 2, 1
(3: 1.11 µM, 2: 0.0124 µM, 1: 0.0018 µM)
